Molecular target: canine FcRn complex (FcRn-alpha subunit and beta-microglobulin), His-tagged, biotin labeled (canine)
Test: SPR (Biacore), biotin-FcRn captured on SA surface, IgG flowed over, pH 6, 15 C
parameter-measured: pKd
One number for each entry, as −log10 of the molar value.

[
  {
    "binder": "canine IgGB (65) mAb with mutation D312G (antibody, part only; not given: Variable domains, not shown: another chain or arm of the molecule) constant: ASTTAPSVFPLAPSCGSTSGSTVALACLVSGYFPEPVTVSWNSGSLTSGVHTFPSVLQSSGLYSLSSMVTVPSSRWPSETFTCNVAHPASKTKVDKPVPKRENGRVPRPPDCPKCPAPEMLGGPSVFIFPPKPKDTLLIARTPEVTCVVVDLDPEDPEVQISWFVDGKQMQTAKTQPREEQFNGTYRVVSVLPIGHQGWLKGKQFTCKVNNKALPSPIERTISKARGQAHQPSVYVLPPSREELSKNTVSLTCLIKDFFPPDIDVEWQSNGQQEPESKYRTTPPQLDEDGSYFLYSKLSVDKSRWQRGDTFICAVMHEALHNHYTQESLSHSPGK",
    "parameter-measured": "pKd",
    "data-value": 7.57
  }
]

Turning to the following binder.
Indicate the recorded pKd value for this binder: canine IgGB (65) mAb with mutation A426G (antibody, part only; not given: variable domains of unnamed mAb, not shown: another chain or arm of the molecule) constant: ASTTAPSVFPLAPSCGSTSGSTVALACLVSGYFPEPVTVSWNSGSLTSGVHTFPSVLQSSGLYSLSSMVTVPSSRWPSETFTCNVAHPASKTKVDKPVPKRENGRVPRPPDCPKCPAPEMLGGPSVFIFPPKPKDTLLIARTPEVTCVVVDLDPEDPEVQISWFVDGKQMQTAKTQPREEQFNGTYRVVSVLPIGHQDWLKGKQFTCKVNNKALPSPIERTISKARGQAHQPSVYVLPPSREELSKNTVSLTCLIKDFFPPDIDVEWQSNGQQEPESKYRTTPPQLDEDGSYFLYSKLSVDKSRWQRGDTFICGVMHEALHNHYTQESLSHSPGK
8.13
